# Tested on: MS2 coat protein
# assay_details: apparent KD of MS2 coat protein; designed switch direction (-1 OFF switch, 1 ON switch): -1; higher = weaker reporter binding
# study_conditions: Eterna round: R95; input ligand: none
measured_property: apparent KD of MS2 coat protein (nM)
Only the number, expressed in nM, is required.

Worked examples, 3 sequences total:
Query string: Need apparent KD of MS2 coat protein, item UUGGAUGUUGAGGAUAUGCUUUUUUUUAUUAUAGCAGAAGGCGAUACAUGAGGAUCACCCAUGUUCAUGGCUUU [JR_E6_Sub099] (puzzle: Exclusion 6)
Result string: 14.6

Query string: Need apparent KD of MS2 coat protein, item GGUUGGCGAGGAUAUACAUGAGGAUCACCCAUGUGAGAGAAAAAAGUGAGGCAGAAAAGUAGAAGGCGCUGACG [salish99_ex3_r3_031] (puzzle: Exclusion 3)
Result string: 96.8

Query string: Need apparent KD of MS2 coat protein, item AAAAAGUGAGGAUAUGCAUAAGGACCCGGGAGGGAAAUAAAACAUGAGGAUCACCCAUGUAGAAGGCGCAAAAA [Exclss2-II] (puzzle: Exclusion 2)
Result string: 15.7

Continuing:
Query string: Need apparent KD of MS2 coat protein, item CGAUGUCUUCGGACAUCGAACAUGAGGAUCACCCAUGUAAUGAGCAGAUCCUCAUGCAAGCUUUUUGCUCGUCUUAU [Sensor v3 - turn-off variant 1 - 45] (puzzle: Sensor v3, turn-off variant 1)
Result string: 16.6

Query string: Need apparent KD of MS2 coat protein, item GAUUAUGCGAGCUUUAGGGACAUGAGGAUCACCCAUGUUCGUCUUAUUGGUCUGAGUGCACUAACAUACCUAAAUCU [JMF 31] (puzzle: Sensor v3, turn-off variant 1)
Result string: 22.8

Query string: Need apparent KD of MS2 coat protein, item AAAAGAAGUGUUAGGAUAUGUGGAAGCAGAAAGACACAGAAGGAACAUGAGGAUCACCCAUGUGACCAAAGAAC [Maenonis] (puzzle: Brourd's mod of Exclusion 4)
Result string: 15.3
